# Tested on: IL10 secretion by TMD8 ABC-DLBCL cells
# experiment_description: Human IL10 Mesoscale assay (TMD-8)
# Type: cell-based
# assay_setup: Homo sapiens, TMD8; TMD-8 cells, 24 h
pIC50: −log10 of the molar value.
Decision: pIC50 >= 7 yields TRUE, all other cases yield FALSE.

Field: example entries. Status: answers known.
Cc1ncn(-c2ncc(NC(=O)c3cnn(-c4cncc5ccccc45)c3C(F)(F)F)cc2Cl)n1: FALSE
O=C(Nc1cnc(-n2nccn2)c(Cl)c1)c1cnn(-c2cccc3c(C(F)F)nccc23)c1C(F)(F)F: TRUE
Cc1cc(NC(=O)c2cnn(-c3cccc4c(=O)[nH]ccc34)c2C(F)(F)F)c(C)nc1-n1nccn1: FALSE

Exercise: Tell me whether pIC50 is at least 7 here: `CS(=O)(=O)c1cc(NC(=O)c2cnn(-c3cccc4ncccc34)c2C(F)(F)F)ccc1-n1nccn1`
Key: FALSE

Exercise: Tell me whether pIC50 is at least 7 here: `NC(=O)c1cnn(-c2ccc(NC(=O)c3cnn(-c4cccc5ncccc45)c3C(F)(F)F)cc2Cl)n1`
Key: FALSE
